ASSAYED SYSTEM: Relaxin receptor 1 (Homo sapiens)
PROCEDURE SUMMARY: qHTS Assay for Antagonists of the Relaxin Receptor RXFP1; also: % is scaled to controls: 0 for no effect and ±100 for the full control effect
STUDY CONDITIONS: HEK293-RXFP1, relaxin-stimulated cAMP HTRF, 30 min; at 57.5 µM
Among all 350,000 compounds or so, about 2,100 (0.6%) were called active. Inconclusive results (about 1%) are left out.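 The calls were made as follows: active = activity change of -60% or lower, but not beyond a set lower limit; inconclusive = change between -60% and -40%, or beyond the set limit; inactive = change above -40%.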 Shown is part of a subset that was picked to be rich in actives.
Outcomes: active, inactive

{"columns": ["TEST SMILES", "QUALITATIVE LABEL"],
 "data": [
  ["CCOc1ccc(-c2nc(N)ncc2-c2ccccc2OC)c(O)c1", "inactive"],
  ["CCOc1ccccc1NC(=O)c1ccc2c(c1)CCN2S(=O)(=O)c1ccc(C)cc1", "inactive"],
  ["CCN(CC)CCCNC(=O)c1ccc2c(=O)n(Cc3ccc4c(c3)OCO4)c(=S)[nH]c2c1", "inactive"],
  ["C=C(C)COc1ccc(-c2ncncc2-c2ccc(OC)cc2)c(O)c1", "inactive"],
  ["C=C(C)COc1ccc(-c2nc(N)ncc2-c2ccccc2OC)c(O)c1", "active"]
]}

====

ASSAYED SYSTEM: Relaxin receptor 1 (Homo sapiens)
PROCEDURE SUMMARY: qHTS Assay for Antagonists of the Relaxin Receptor RXFP1; also: % is scaled to controls: 0 for no effect and ±100 for the full control effect
STUDY CONDITIONS: HEK293-RXFP1, relaxin-stimulated cAMP HTRF, 30 min; at 57.5 µM; active compounds read low
Protocol: The relaxin hormone is involved in the variety of biological functions in normal tissues and diseases. […] RXFP1 activation by relaxin in presence of various concentrations of tested compounds was assayed by changes in cAMP levels as detected with a time-resolved fluorescence energy transfer (TR-FRET) cAMP detection kit. For the primary screening, we used HTRF(R) (Homogenous Time-Resolved Fluorescence) cAMP HiRange assay (Cisbio Bioassays, 62AM6PEJ). […]
The whole screen tested about 350,000 compounds, of which about 2,100 (0.6%) were called active. Not shown: some 1% with an inconclusive outcome. What follows is part of a selection rich in actives, with near analogues and random picks from the rest.
QUANTITY KIND: activity change, negative = inhibition (%)

{"columns": ["TEST SMILES", "MEASURED"],
 "data": [
  ["O=c1oc2ccccc2cc1-c1csc(Nc2ccc(O)cc2)n1", -97],
  ["O=C(CSc1oc(-c2ccc(F)cc2)nc1S(=O)(=O)c1ccc(Br)cc1)NC1CCCCC1", -5.96],
  ["CC(C)S(=O)(=O)c1oc(-c2ccc(F)cc2)nc1S(=O)(=O)c1ccc(F)cc1", -89.7],
  ["NNc1nc2c(Cl)cccc2s1", -80.1],
  ["Cc1ccc(-c2nc(S(=O)(=O)c3ccc(C)cc3)c(N3CCCCCC3)o2)cc1", 2.42],
  ["Cc1ccc2nsnc2c1NC(=O)c1ccccc1[N+](=O)[O-]", -9.18],
  ["Cc1ccc(C)c(Cn2c(C(=O)O)c(CNCc3cccs3)c3ccccc32)c1", -81.9],
  ["Cc1cc(NC(=O)c2cccc(Cl)c2)ccc1-c1cc2ccccc2oc1=O", -4.13],
  ["CC1(C)OC[C@@H](COC(=O)CCc2ccc(OC[C@@H](O)CNCCNC(=O)N3CCOCC3)cc2)O1", -4.26],
  ["CC(=O)Oc1ccccc1C(=O)Nc1ncc([N+](=O)[O-])s1", -60.7]
]}
